Values were extracted from the RNAGym collection of RNA variant scans (doi:10.1021/acssynbio.7b00057).

B1: Pistol ribozyme (parent)
chain: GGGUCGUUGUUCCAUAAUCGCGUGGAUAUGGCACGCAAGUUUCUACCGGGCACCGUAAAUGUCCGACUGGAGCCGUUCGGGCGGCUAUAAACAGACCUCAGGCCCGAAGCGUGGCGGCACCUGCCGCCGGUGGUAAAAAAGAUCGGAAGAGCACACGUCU

- Variants of: B1
- method.description: aptazyme ON/OFF ratio, guanine; higher = stronger switching; co-transcriptional cleavage with and without guanine
measurement.type: aptazyme ON/OFF ratio

mutation.spec	aptazyme ON/OFF ratio
U7A U8A G9U U10A U11A C13U	1.27

Kindly give each listed record's aptazyme ON/OFF ratio.
1. U8C G9U U10G C12A C13G
2. U8C G9C U10A U11A C13A
3. G9A U10G C12G C13U
4. U7C U10C U11G C12U C13A
5. U7G U8C G9U U10C U11G C13G
6. U7G U8C G9A U10A U11A C13A
7. U7C U8A G9U U11G C13G

1. 1.13
2. 1.15
3. 1.29
4. 1.16
5. 1.09
6. 1.09
7. 1.02

Kindly give each listed record's aptazyme ON/OFF ratio.
1. U7G G9U U10C U11C C12G C13U
2. U7G U8C G9U U10C U11G C13A
3. U7A U8A G9C U10G U11G C13U
4. U7A G9U C12G C13U
5. G9C
6. U7C U8A G9A U10G U11G C13A
7. U8G U11C C12A C13U
8. U7G U8A G9U C12U

[1.31, 1.44, 1.48, 1.3, 1.06, 1.11, 1.14, 1.18]

Kindly give each listed record's aptazyme ON/OFF ratio.
1. U7C U8A G9A U11A C12U C13G
2. U7A U8G G9A U10A U11A

1. 1.18
2. 1.8

Kindly give each listed record's aptazyme ON/OFF ratio.
1. U7C U8A U10C U11C
2. U8C G9C U10A U11A C13U
3. U7C U8C U10A U11G C12A C13U
4. U7G U8A G9A U10G C12A C13A
5. U7A U8G G9U U10G U11A C12U C13A

1: 1.05; 2: 1.09; 3: 1.12; 4: 1.18; 5: 1.64

Kindly give each listed record's aptazyme ON/OFF ratio.
1. U7G U8A G9C U10C U11A C13U
2. U7C U8A G9A U10A U11C C12A C13A
3. U7C U8C G9C U10A U11G C13G
4. U7C C12U
5. U8C U10C U11A C13U

[1.1, 1.17, 1.14, 1.73, 1.28]

Kindly give each listed record's aptazyme ON/OFF ratio.
1. U7G U8G G9U U10C U11C C12U C13U
2. U7G G9C U10G U11A C12G C13U
3. U7C U8C U10C U11A C12G C13U
4. U7C U8A G9A U10C U11C C12G C13G
5. U10G U11G C12U
6. U7A G9C U10G C13U

1: 1.37; 2: 1.28; 3: 1.2; 4: 1.17; 5: 1.38; 6: 1.33

Kindly give each listed record's aptazyme ON/OFF ratio.
1. U7C U10A U11A C12A C13U
2. U8G G9U U10A U11A C12G C13U
3. U7C G9U U10C U11C C12U C13U
4. U7G U8A G9C U10G U11C C12G C13U
5. U7A U8A U11A C12U C13A
6. G9C U11G C13U

1.21
1.22
1.05
1.03
1.29
1.31

Kindly give each listed record's aptazyme ON/OFF ratio.
1. U10C U11C C12G C13A
2. U8G G9A U10G C12U C13U
3. U7G U8A G9A U10A
4. U7G U8C U10A C12U C13U
5. U7A U8C G9C U10C C12G C13U
6. U7A G9C U10C U11C C12G C13U

1. 1.17
2. 1.18
3. 1.77
4. 1.12
5. 1.08
6. 1.02
